system under test: T1, biotinylated huIL-23R-IgG (human, UniProt Q5VWK5 24-353, biotinylated)
T1 construct: not shown: human IgG1 Fc
T1 sequence: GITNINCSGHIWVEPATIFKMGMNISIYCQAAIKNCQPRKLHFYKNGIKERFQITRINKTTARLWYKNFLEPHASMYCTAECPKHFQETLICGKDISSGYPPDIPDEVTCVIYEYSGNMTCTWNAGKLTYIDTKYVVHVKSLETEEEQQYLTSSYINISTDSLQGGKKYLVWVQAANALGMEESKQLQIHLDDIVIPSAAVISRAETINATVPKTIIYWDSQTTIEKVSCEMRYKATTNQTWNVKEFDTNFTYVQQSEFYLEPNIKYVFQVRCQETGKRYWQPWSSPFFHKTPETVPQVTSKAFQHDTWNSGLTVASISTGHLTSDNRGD
method description: ECL binding assay, periplasmic Fab extracts, biotinylated huIL-23R-IgG; AUC vs parental 8B10 Fab

{"columns": ["binder", "Binding (% of w.t.)"],
 "data": [
  ["chimeric 8B10 Fab, VH D104A (Fab, V domains shown, Rat V domains with human CH1 and CL; E. coli periplasmic extract) VH: EVKLVESGGGLEQPKGSLKLSCTVSGFDFNSYGMSWVRQAPGKGLDLVADINSKSYNYATYYADSVKDRFTISRDDSQSMVYLEMDNLKTEDTALYYCTVHHSAYFEYWGQGVMVTVSS VL: DIQMTQSPASLSASLGETVSIECLASEDIYNNLAWYQQKPGKSPQLLIYHASSLQDGVPSRFSGSGSGTQYSLKINSLESEDAATYFCLQDSEYPPTFGGGTKLELKR", "1.5 % of w.t."]
]}

Where do the numbers come from? From patent US20110158992A1.
